# target-desc: human CD33 E121A (human, UniProt P20138 18-364)
# Sequence (P20138 18-364 E121A limits assumed): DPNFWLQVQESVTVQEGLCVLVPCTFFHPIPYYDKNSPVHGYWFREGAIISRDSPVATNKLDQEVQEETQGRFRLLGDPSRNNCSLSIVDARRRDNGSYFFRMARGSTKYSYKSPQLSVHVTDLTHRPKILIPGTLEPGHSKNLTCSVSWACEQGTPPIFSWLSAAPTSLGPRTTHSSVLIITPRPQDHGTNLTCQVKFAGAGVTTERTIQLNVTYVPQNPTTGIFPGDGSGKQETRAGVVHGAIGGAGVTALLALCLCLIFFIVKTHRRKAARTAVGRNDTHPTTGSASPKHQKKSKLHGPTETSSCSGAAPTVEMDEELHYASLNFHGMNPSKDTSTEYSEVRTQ
# method-summary: flow cytometry on HEK293-T, alanine scan
Provide the reported Mean % WT Binding of each item.
Write down the value, and be sure its unit follows.

Some solved cases for reference:
Enquiry: Looking for the measured Mean % WT Binding of Refmab #1 (antibody, V domains shown, The alanine scan used IgG or Fab; also called hP67.6) VH: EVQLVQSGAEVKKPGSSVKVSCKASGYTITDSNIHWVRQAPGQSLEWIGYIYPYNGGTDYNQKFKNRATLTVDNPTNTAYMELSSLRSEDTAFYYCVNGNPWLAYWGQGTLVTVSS VL: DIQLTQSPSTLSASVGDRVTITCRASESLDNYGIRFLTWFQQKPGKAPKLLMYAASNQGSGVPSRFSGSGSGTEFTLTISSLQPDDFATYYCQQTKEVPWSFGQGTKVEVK , can you help?
Return: 87.7 % WT binding

Enquiry: Looking for the measured Mean % WT Binding of Refmab #3 (antibody, V domains shown, The alanine scan used IgG or Fab) VH: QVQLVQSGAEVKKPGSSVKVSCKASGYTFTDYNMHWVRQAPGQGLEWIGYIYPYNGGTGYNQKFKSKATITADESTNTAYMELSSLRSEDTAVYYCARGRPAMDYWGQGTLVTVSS VL: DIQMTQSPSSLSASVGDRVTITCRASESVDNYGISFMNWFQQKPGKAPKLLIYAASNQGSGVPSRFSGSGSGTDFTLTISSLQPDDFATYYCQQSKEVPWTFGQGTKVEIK , can you help?
Return: 132 % WT binding

Enquiry: Looking for the measured Mean % WT Binding of Refmab #4 (antibody, V domains shown, The alanine scan used IgG or Fab) VH: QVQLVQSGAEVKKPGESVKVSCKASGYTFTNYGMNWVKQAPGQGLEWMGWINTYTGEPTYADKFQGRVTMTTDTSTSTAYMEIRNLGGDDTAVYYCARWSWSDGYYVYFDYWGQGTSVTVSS VL: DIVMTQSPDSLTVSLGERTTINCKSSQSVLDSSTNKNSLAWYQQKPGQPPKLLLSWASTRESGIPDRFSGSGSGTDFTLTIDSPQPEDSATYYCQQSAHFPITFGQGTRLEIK , can you help?
Return: 77.3 % WT binding

Now look at this entry.
Enquiry: Looking for the measured Mean % WT Binding of Refmab #2 (antibody, V domains shown, The alanine scan used IgG or Fab) VH: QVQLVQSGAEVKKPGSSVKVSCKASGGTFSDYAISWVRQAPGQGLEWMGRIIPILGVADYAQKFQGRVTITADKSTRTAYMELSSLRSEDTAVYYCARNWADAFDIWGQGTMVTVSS VL: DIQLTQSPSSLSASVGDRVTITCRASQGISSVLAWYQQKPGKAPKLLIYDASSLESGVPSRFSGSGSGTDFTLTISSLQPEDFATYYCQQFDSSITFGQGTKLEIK , can you help?
Return: 109 % WT binding

Source: patent US20260242735A1
